Before we begin, note that these IC50 values for Lysine-specific demethylase 3B (Homo sapiens, UniProt Q7LBC6) originate from several publications.

Please review the entries below; each comes with its answer.
CCN(CCN(C)C)C(=O)CNCc1cc(CNC(=O)C(F)(F)F)ccn1: > 2.5 µM
CCOC(=O)CCNc1cc(N2CCc3ccccc3CC2)nc(-c2ccccn2)n1: 6.9 µM
CC(C)c1c(-c2ccccc2)[nH]c2c(C#N)cnn2c1=O: 15.3 to 25 µM
CN(c1ccccc1)c1ccc2c(c1)CCC[C@H]2CNc1cnccc1C(=O)O: > 4 µM

Request: Recorded IC50 for O=C(O)CCNc1cc(N2CCc3ccccc3CC2)nc(-c2ccccn2)n1 , please?
Response: > 75 µM
